Listed next: entries and their corresponding Potency.
- system: Rap guanine nucleotide exchange factor 3 (Homo sapiens)
- protocol-summary: Counterscreen qHTS for agonist of cAMP-regulated guanine nucleotide exchange factor 3 (EPAC1) (AID 1645889); note: potency is the fitted concentration of half-maximal effect; nearly all actives have a fitted effect of over 40% in size
- setup-conditions: EPAC1 Rap1B-BODIPY-GDP exchange, fluorescence; series mostly up to 154 µM
Results filed as inconclusive are left out. Activity calls are given as the source filed them. Calls come from the whole dose curve; as a rule, active = well fitted activation curve with a large enough effect; inconclusive = small, poorly fitted or top-dose-only effect, or another doubt; inactive = no such curve, though single readings can be large or run the other way.

CN(C)c1ccc(/C=C/C(=O)c2ccc3c(c2)OCO3)cc1    79.4 µM (active)
CCOC(=O)/C(=C\c1ccc(N2CCC(c3ccccc3)=N2)cc1)C(C)=O    12.6 µM (active)
Cc1cc(/C=N/NC(N)=S)c(O)c(/C=N/NC(N)=S)c1    6.31 µM (active)
CCOC(=O)c1cc2n(c1N)-c1ccccc1C2=O    31.6 µM (active)
N#Cc1cc(C(=O)c2ccccc2O)cn(-c2nccs2)c1=O    39.8 µM (active)
CN1/C(=C\C=C2/SC(=S)NC2=O)C(C)(C)c2ccccc21    70.8 µM (active)
CN1/C(=C\C=C(/C#N)C(=O)Nc2ccccc2F)C(C)(C)c2ccccc21    14.1 µM (active)
O=C1NC(=O)C2(N1)C(=O)c1cccc3cccc2c13 (stereo not given)    44.7 µM (active)
CC1C/C(=C/c2cccn2C)C(=O)/C(=C/c2cccn2C)C1 (stereo not given)    79.4 µM (active)

Please look at the following compound next.
Provide measured Potency value, entry: "Cc1ccc2c(c1)c(/C=C/c1cc[n+](C)cc1)c(C)n2C"
8.91 µM (active)
